- System: HOP-62 NSCLC
- test-details: NCI-60 one-dose screen, 48 h (100 = growth as untreated, 0 = no growth, -100 = all killed)
- experimental-context: 10 µM unless noted
The panel holds about 83,000 compounds, 20% with a hit somewhere; the sample as a whole holds those more often.
Classify as follows. Reported growth greater than or equal to 70%: Criterion met. Reported growth below: Criterion not met.

{"smiles-string": "OCc1cnccc1NC12CC3CC(CC(C3)C1)C2", "tested-system": "HOP-62 NSCLC", "answer-label": "Criterion met"}
{"smiles-string": "Nc1nc(=S)ss1", "tested-system": "HOP-62 NSCLC", "answer-label": "Criterion met"}
{"smiles-string": "NS(=O)(=O)c1ccc(CCN2C(=O)/C(=C\\c3ccc(Cl)cc3)C=C2c2ccc(Oc3ccccc3)cc2)cc1", "tested-system": "HOP-62 NSCLC", "answer-label": "Criterion met"}
{"smiles-string": "O=C(Nc1ccc(-n2ccc3c(NC(=O)c4ccccc4)nccc32)cc1)c1cccc(C(F)(F)F)c1", "tested-system": "HOP-62 NSCLC", "answer-label": "Criterion not met"}
{"smiles-string": "Cc1[nH]n(C(=O)c2ccncc2)c(=O)c1N=Nc1ccc(S(=O)(=O)Nc2ccncn2)cc1", "tested-system": "HOP-62 NSCLC", "answer-label": "Criterion met"}
{"smiles-string": "COc1ccc(Cn2cc3c(c2-c2cc(OC)c(OC)c(OC)c2)CCc2c(CO)noc2-3)cc1", "tested-system": "HOP-62 NSCLC", "answer-label": "Criterion not met"}
{"smiles-string": "C#CCn1c(-c2cc(OC)c(OC)cc2Br)nc(-c2ccccc2)c1-c1ccccc1", "tested-system": "HOP-62 NSCLC", "answer-label": "Criterion met"}

----------
- System: MDA-MB-435 melanoma
- test-details: NCI-60 one-dose screen, 48 h (100 = growth as untreated, 0 = no growth, -100 = all killed)
- experimental-context: 10 µM unless noted
This is part of a sample that, as a whole, favours compounds with a hit. Of some 83,000 tested, about 20% had one in any assay.
Recorded growth for the following molecules

{"molecule": "CC1(C)N=C(N)N=C(N)N1c1ccc(OCC(=O)Nc2ccccc2)c(Cl)c1", "tested-system": "MDA-MB-435 melanoma", "growth, %": 25.2}
{"molecule": "CC1(C)N=C(N)N=C(N)N1c1cccc(CCCCc2ccccc2)c1", "tested-system": "MDA-MB-435 melanoma", "growth, %": -0.215}
{"molecule": "O=C(/C=C/c1ccccc1)Oc1ccc(/C=C/c2cc(OC(=O)/C=C/c3ccccc3)cc(OC(=O)/C=C/c3ccccc3)c2)cc1", "tested-system": "MDA-MB-435 melanoma", "growth, %": 101}
{"molecule": "O=C(O)c1ccc(-n2cc(/C=N/Nc3ccccc3F)c(-c3ccc(O)cc3)n2)cc1", "tested-system": "MDA-MB-435 melanoma", "growth, %": 74.8}
{"molecule": "O=C1CCC(=O)N1C1CCCCC1", "tested-system": "MDA-MB-435 melanoma", "growth, %": 99.5}
{"molecule": "CCOC(=O)C1CSC(C)(C(=O)OCC)N1 (stereo unspecified)", "tested-system": "MDA-MB-435 melanoma", "growth, %": 103}

----------
- Test system: RXF 393 renal
- test-details: NCI-60 one-dose screen, 48 h
- experimental-context: 10 µM unless noted
About 83,000 compounds went through this panel and 20% of them were active in at least one assay; those are over-represented in the sample as a whole. Calls of active or inactive are those of the source. How the source made its calls: active means growth percent below 10; inactive means the rest.
Outcomes: active, inactive

{"smiles-string": "Nc1nc(=S)ss1", "answer-label": "inactive"}
{"smiles-string": "COc1ccccc1NC(=O)COc1ccc(/C=C2/Oc3cc4occc4c(OC)c3C2=O)cc1OC", "answer-label": "inactive"}
{"smiles-string": "Nc1n[nH]c2cccc(C#Cc3cccc(NC(=O)c4cccc(C(F)(F)F)c4)c3)c12", "answer-label": "active"}
{"smiles-string": "O=[N+]([O-])c1cccc2cc(S(=O)(=O)O)ccc12", "answer-label": "inactive"}
{"smiles-string": "Nc1nc(Cl)cc(NCCCCNc2cc(Cl)nc(N)n2)n1", "answer-label": "inactive"}
{"smiles-string": "C[C@]12CC[C@@H]3c4ccc(O)c(N)c4CC[C@H]3[C@@H]1CC[C@@H]2O", "answer-label": "inactive"}
{"smiles-string": "FC(F)(F)c1cccc([Si](F)(c2cccc(C(F)(F)F)c2)c2cccc(C(F)(F)F)c2)c1", "answer-label": "inactive"}

----------
- Test system: IGROV1 ovarian
- test-details: NCI-60 one-dose screen, 48 h
- experimental-context: 10 µM unless noted
About 83,000 compounds went through this panel and 20% of them were active in at least one assay; those are over-represented in the sample as a whole. Active and inactive are the calls of the source. The calls were made as follows: active = growth percent below 10; inactive = the rest.
Outcomes: active, inactive

{"molecule": "O=c1[nH]ccc2nc(N3CCC(O)CC3)nc(Nc3cccc(C(F)(F)F)c3)c12", "answer-label": "inactive"}
{"molecule": "O=C(Cn1c2ccccc2c2ccncc21)N/N=C/c1c[nH]c2ccccc12", "answer-label": "inactive"}
{"molecule": "C=CC(C)(O)CCC1C(=C)CCC2C(C)(C)CCCC12C (stereo unspecified)", "answer-label": "inactive"}
{"molecule": "CCc1c2cc(Cl)ccc2n2cc(Cc3ccccc3)[nH]c(=O)c12", "answer-label": "inactive"}
{"molecule": "Cc1ccc(-c2cn3cc([N+](=O)[O-])ccc3n2)cc1", "answer-label": "inactive"}
{"molecule": "Cn1c2ccccc2c2ssc(=S)c21", "answer-label": "active"}
{"molecule": "CCCC(C)(C)COC(=O)c1cccc(N)c1", "answer-label": "inactive"}
{"molecule": "O=C(Nc1ccc(-n2cc(-c3ccncc3)c(-c3ccc(O)c(Cl)c3)n2)cc1)Nc1cccc(Cl)c1Cl", "answer-label": "inactive"}
{"molecule": "COc1cc(-c2nc(SCC(=O)Nc3ccc(C(C)=O)cc3)[nH]c(=O)c2C#N)cc(OC)c1OC", "answer-label": "inactive"}
{"molecule": "O=C(Nc1cccc(-n2ccc3c(NC(=O)c4ccccc4)nccc32)c1)c1cc(N2CCOCC2)cc(C(F)(F)F)c1", "answer-label": "active"}
{"molecule": "COc1cc(/C=C/C(=O)c2ccc(Oc3ncnc4ccccc34)cc2)cc(OC)c1OC", "answer-label": "inactive"}
{"molecule": "COc1ccc(CNc2nc3ccccc3c3c(=O)c4ccccc4sc23)cc1OC", "answer-label": "inactive"}
{"molecule": "Nc1nc(Nc2ccc(OCc3cccc(F)c3)cc2)c2c(n1)[nH]c1ccc(O)cc12", "answer-label": "active"}
{"molecule": "CS(=O)(=O)Nc1cccc(-c2ccc3ncnc(Nc4ccc(F)c(Cl)c4)c3c2)c1", "answer-label": "active"}
{"molecule": "CN(C)c1ccc(/C=N/n2c(-c3cc(F)c(Cl)cc3Cl)nn(CN3CCOCC3)c2=S)cc1", "answer-label": "inactive"}
{"molecule": "CCOc1ccc(Cc2nccc3cc(OCC)c(OCC)cc23)cc1OCC", "answer-label": "inactive"}

----------
Reported growth values for the following molecules.
- Tested on: NCI-H23 lung
- test-details: NCI-60 one-dose screen, 48 h (100 = growth as untreated, 0 = no growth, -100 = all killed)
- experimental-context: 10 µM unless noted
About 83,000 compounds went through this panel and 20% of them were active in at least one assay; those are over-represented in the sample as a whole.
measured-parameter: growth (%)

{"molecule": "CC(C)CCC[C@@H](C)[C@H]1CC[C@H]2[C@@H]3CC=C4N(c5ccccc5)C(=O)CC[C@]4(C)[C@H]3CC[C@]12C", "measured-parameter": "growth", "observed-measurement": 97.2}
{"molecule": "O=S(=O)(O)c1ccc(F)cc1", "measured-parameter": "growth", "observed-measurement": 96.1}
{"molecule": "CN(C)CC/C=C1\\c2ccccc2Sc2ccc(Cl)cc21", "measured-parameter": "growth", "observed-measurement": 80}
{"molecule": "CC(CCC(=O)O)[C@H]1CCC2C3C(=O)C[C@@H]4CC(=O)CC[C@]4(C)C3CC(=O)[C@@]21C (some centres not stated)", "measured-parameter": "growth", "observed-measurement": 101}
{"molecule": "Cc1cccc[n+]1CCC[n+]1ccccc1C", "measured-parameter": "growth", "observed-measurement": 99.8}
{"molecule": "O=S(=O)(Nc1cccc2cc(OS(=O)(=O)c3ccccc3)ccc12)c1ccccc1", "measured-parameter": "growth", "observed-measurement": 73.8}
{"molecule": "Cc1ccc(N(CC2=NCCN2)c2cccc(O)c2)cc1", "measured-parameter": "growth", "observed-measurement": 100}

----------
- System: HCT-15 colon
- test-details: NCI-60 one-dose screen, 48 h (100 = growth as untreated, 0 = no growth, -100 = all killed)
- experimental-context: 10 µM unless noted
About 83,000 compounds went through this panel and 20% of them were active in at least one assay; those are over-represented in the sample as a whole.
Friendly reminder: growth below 70% is true (1), at or above is false (0).

{"smiles-string": "O=C(Nc1ccc(-n2cc(-c3ccncc3)c(-c3ccc(O)c(Cl)c3)n2)cc1)Nc1cc(C(F)(F)F)cc(C(F)(F)F)c1", "answer-label": "true (1)"}
{"smiles-string": "Fc1cccc(F)c1C#Cc1ccc2cccnc2c1", "answer-label": "false (0)"}
{"smiles-string": "CC(=O)Cc1cccnc1", "answer-label": "false (0)"}
{"smiles-string": "COc1cc(C(=O)NNC(=O)c2ccccc2C(=O)O)cc(OC)c1OC", "answer-label": "true (1)"}
{"smiles-string": "O=C1c2ccccc2C(=O)c2c(NCCN=Cc3c(O)ccc4ccccc34)cccc21", "answer-label": "false (0)"}
